meta.source: ChEMBL document CHEMBL1961873

Assay system: Tyrosine-protein kinase BTK (Homo sapiens) (UniProt Q06187);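 also: values are mean percent inhibition of BTK across replicate measurements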
Sequence (Q06187 whole entry): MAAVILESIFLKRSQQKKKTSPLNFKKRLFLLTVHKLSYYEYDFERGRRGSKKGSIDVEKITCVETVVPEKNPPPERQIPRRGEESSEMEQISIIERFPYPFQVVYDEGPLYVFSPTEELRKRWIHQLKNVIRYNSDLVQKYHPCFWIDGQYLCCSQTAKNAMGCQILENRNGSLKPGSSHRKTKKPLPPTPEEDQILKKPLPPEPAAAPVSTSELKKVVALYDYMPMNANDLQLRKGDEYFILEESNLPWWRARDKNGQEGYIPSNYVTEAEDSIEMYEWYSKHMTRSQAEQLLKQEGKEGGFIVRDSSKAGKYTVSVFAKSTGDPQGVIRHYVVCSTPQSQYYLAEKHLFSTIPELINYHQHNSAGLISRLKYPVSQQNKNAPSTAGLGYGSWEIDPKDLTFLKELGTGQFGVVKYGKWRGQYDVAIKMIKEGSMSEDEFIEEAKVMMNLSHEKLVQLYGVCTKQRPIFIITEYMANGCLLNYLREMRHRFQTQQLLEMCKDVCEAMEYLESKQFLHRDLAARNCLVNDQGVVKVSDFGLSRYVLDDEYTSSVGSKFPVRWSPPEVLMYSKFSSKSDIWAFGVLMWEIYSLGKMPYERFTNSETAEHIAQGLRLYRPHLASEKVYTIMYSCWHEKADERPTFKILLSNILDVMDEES
Condition: at 1 µM
Property: inhibition (%)
The answer is to be given in %; state only the numeric part.

Could you tell me which inhibition is on file for NC(=O)c1cc(-c2ccncc2)cc(-c2ccccc2)c1N ? 11.8

What does the record list as inhibition for COc1ccc(-c2ccc3c(NC(=O)C4CC4)n[nH]c3n2)cc1 ? -0.23

Entry under review: NC(=O)c1cc(-c2ccc(F)cc2)cc(-c2ccncc2)c1N . Reported inhibition? -0.9

What does the record list as inhibition for CCc1cccc(CC)c1/C=C/c1cncc(C(=O)NC)c1 ? 2.98

Please look up its inhibition: Fc1ccc(-c2ncn(CCCN3CCOCC3)c2-c2ccncc2)cc1 2.71

***
I would be grateful if you could share the reported inhibition for c1ccc(Oc2ccc(Nc3ncc(-c4ccccc4)o3)cc2)cc1 . 0.56

Which inhibition reading was recorded for the compound CCS(=O)(=O)c1ccc(OC)c(Nc2ncc(-c3cccc(-c4ccccc4F)c3)o2)c1 ? 3.93

Recorded inhibition of COc1cc2ncn(-c3cc(OCc4cccs4)c(C(N)=O)s3)c2cc1OC , please. -0.98

Returns the measured inhibition for the input compound. Input: CN(C)CCOc1ccc(-c2cc(-c3ccc4c(c3)CCC4=NO)c(-c3ccncc3)o2)cc1 2.57

State the recorded inhibition for this entry: COc1ccc2ncn(-c3cc(O[C@H](C)c4ccccc4Cl)c(C(N)=O)s3)c2c1 -3.34
